Test: physchem
Format: physicochemical
Conditions: water
readout-name: solubility (mg/mL)
A number alone suffices; assume mg/mL.

[in] State the recorded solubility for this entry: O=C(O[C@H]1CN2CCC1CC2)N1CCc2ccccc2[C@@H]1c1ccccc1
[out] 610

---

Test: physchem
Type: physicochemical
Conditions: pH 6.8, aqueous buffer
readout-name: solubility (mg/mL)
The response must be a number in mg/mL with no trailing unit.

[in] Using the record for O=C(O[C@H]1CN2CCC1CC2)N1CCc2ccccc2[C@@H]1c1ccccc1 [solifenacin] , report its solubility.
[out] 430
